# target.or.system: UniProt P20272
# Sequence (P20272 whole entry): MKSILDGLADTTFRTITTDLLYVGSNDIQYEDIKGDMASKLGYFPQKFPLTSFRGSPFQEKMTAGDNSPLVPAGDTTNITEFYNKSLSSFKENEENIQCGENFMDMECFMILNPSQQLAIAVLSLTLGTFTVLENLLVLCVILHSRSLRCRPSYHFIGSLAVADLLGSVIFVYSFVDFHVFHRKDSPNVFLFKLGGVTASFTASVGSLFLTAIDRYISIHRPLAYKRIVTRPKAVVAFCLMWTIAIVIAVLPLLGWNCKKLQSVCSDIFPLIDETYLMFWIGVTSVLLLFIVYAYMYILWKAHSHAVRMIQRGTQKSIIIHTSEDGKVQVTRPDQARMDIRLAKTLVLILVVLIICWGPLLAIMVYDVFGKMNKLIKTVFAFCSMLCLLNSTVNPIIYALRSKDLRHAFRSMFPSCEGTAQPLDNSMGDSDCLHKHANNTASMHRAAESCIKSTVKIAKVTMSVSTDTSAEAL
# protocol.text: Binding affinity towards cannabinoid receptor 1 from rat forebrain membranes in the absence of phenylmethanesulfonylfluoride (PMSF) using 0.8 nM [3H]CP-55940 as radioligand
# Design: species or system Membrane
pKi: −log10 of the molar value.
Where pKi equals or exceeds 5, the correct label is Fulfilled; where it does not, the label is Not fulfilled.

molecule | class.assignment
CCCCC/C=C\C/C=C\C/C=C\C/C=C\CCCC(=O)NC(C)CC (stereo not drawn) | Fulfilled
CCCCCCCC/C=C\CCCCCCCC(=O)NCCO [OLEOYLETHANOLAMIDE] | Not fulfilled
C#CCNC(=O)CCC/C=C\C/C=C\C/C=C\C/C=C\CCCCC | Fulfilled

Textbook exercise: given the entry C=CCNC(=O)CCC/C=C\C/C=C\C/C=C\C/C=C\CCCCC , state whether its pKi is greater than or equal to 5.
Fulfilled

Try this molecule too: CCCCC/C=C\C/C=C\C/C=C\C/C=C\CCCC(=O)NCCCl
Fulfilled

Try this molecule too: CCCCC/C=C\C/C=C\CCCCCCCC(=O)N[C@H](C)CO
Not fulfilled

Try this molecule too: CCCCCCCC/C=C\CCCCCCCC1=NCCO1
Not fulfilled

Try this molecule too: CCCCC/C=C\C/C=C\C/C=C\C/C=C\CCCC(=O)NCCF
Fulfilled

Try this molecule too: CCCCCCCC/C=C\CCCCCCCC(=O)N[C@H](C)CO
Not fulfilled

Try this molecule too: CCCCC/C=C\C/C=C\C/C=C\C/C=C\CCCC(=O)NC(C)(C)C
Fulfilled

Try this molecule too: CCCCC/C=C\C/C=C\C/C=C\C/C=C\CCCC(=O)NC[C@H](C)O
Fulfilled

Try this molecule too: CCCCC/C=C\C/C=C\C/C=C\C/C=C\CCCCNC(=O)COC(C)=O
Fulfilled

Try this molecule too: CCCCC/C=C\C/C=C\C/C=C\C/C=C\CCCC1=N[C@H](C)CO1
Fulfilled

Try this molecule too: CCCCC/C=C\C/C=C\C/C=C\C/C=C\CCCC(=O)NCC(F)(F)F
Fulfilled

Sourced from ChEMBL document CHEMBL1131442
